Assign % Phosphatase Activity (compared to DMSO) PRL-3 to each entry below.
# EXPERIMENTAL_TARGET: recombinant PRL-3 (Homo sapiens)
# Construct: 6xHis (N, cleaved yes); made in house; host or cells: E. coli One Shot BL21 Star
# Sequence (O75365 whole entry): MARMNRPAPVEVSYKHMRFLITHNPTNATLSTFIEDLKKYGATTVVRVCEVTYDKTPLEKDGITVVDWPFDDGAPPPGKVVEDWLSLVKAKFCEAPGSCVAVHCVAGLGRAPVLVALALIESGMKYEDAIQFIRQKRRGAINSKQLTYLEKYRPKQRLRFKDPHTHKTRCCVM
# MEASUREMENT_DESCRIPTION: In vitro phosphatase assay (DiFMUP hydrolysis), PRL-3; also: test concentration or dose not given here
# Type: biochemical
# TEST_SETTINGS: FDA-approved drug screen; activity compared to DMSO
Give bare numbers, in %.

Q: Give the value of % Phosphatase Activity (compared to DMSO) PRL-3 reported for the following: Cc1cc(C)nc(NS(=O)(=O)c2ccc(N)cc2)n1
A: 82

Q: Give the value of % Phosphatase Activity (compared to DMSO) PRL-3 reported for the following: O=c1[nH]c(=O)n([C@H]2C[C@H](O)[C@@H](CO)O2)cc1C(F)(F)F
A: 91

Q: Give the value of % Phosphatase Activity (compared to DMSO) PRL-3 reported for the following: C=CC[C@@H]1/C=C(\C)C[C@H](C)C[C@H](OC)[C@H]2O[C@@](O)(C(=O)C(=O)N3CCCC[C@H]3C(=O)O[C@H](/C(C)=C/[C@@H]3CC[C@@H](O)[C@H](OC)C3)[C@H](C)[C@@H](O)CC1=O)[C@H](C)C[C@@H]2OC
A: 94

Q: Give the value of % Phosphatase Activity (compared to DMSO) PRL-3 reported for the following: CC[C@@H]1C(=O)N(C)c2cnc(Nc3ccc(C(=O)N[C@H]4CC[C@H](N5CCN(CC6CC6)CC5)CC4)cc3OC)nc2N1C(C)C
A: 87

I have 3 molecules here; please give me % Phosphatase Activity (compared to DMSO) PRL-3 for each one.
1. C[C@H](Cn1cnc2c(N)ncnc21)OCP(=O)(O)O
2. [H]/N=C(/N)NS(=O)(=O)c1ccc(N)cc1
3. NC[C@H]1CC[C@H](C(=O)O)CC1

A:
100
77
96

I have 5 molecules here; please give me % Phosphatase Activity (compared to DMSO) PRL-3 for each one.
1. CC1=C(/C=C/C(C)=C/C=C/C(C)=C/C(=O)O)C(C)(C)CCC1
2. CC[C@]1(O)C[C@H]2CN(CCc3c([nH]c4ccccc34)[C@@](C(=O)OC)(c3cc4c(cc3OC)N(C=O)[C@H]3[C@@](O)(C(=O)OC)[C@H](OC(C)=O)[C@]5(CC)C=CCN6CC[C@]43[C@@H]65)C2)C1
3. CCN(CC)CCNC(=O)c1c(C)[nH]c(/C=C2\C(=O)Nc3ccc(F)cc32)c1C [Sunitinib]
4. CCOC(N)=O
5. CCCc1nc2c(C)cc(-c3nc4ccccc4n3C)cc2n1Cc1ccc(-c2ccccc2C(=O)O)cc1

A:
1: 46; 2: 61; 3: 77; 4: 91; 5: 92

* * *

# EXPERIMENTAL_TARGET: recombinant PRL-3 (Homo sapiens)
# Construct: 6xHis (N, cleaved yes); made in house; host or cells: E. coli One Shot BL21 Star
# MEASUREMENT_DESCRIPTION: In vitro phosphatase assay (DiFMUP hydrolysis), PRL-3; also: test concentration or dose not given here
# Assay type: biochemical
# TEST_SETTINGS: FDA-approved drug screen; compared to DMSO
READOUT_TYPE: % Phosphatase Activity (compared to DMSO) PRL-3 (%)
Numbers only, in %.

Below, each entry is followed by its recorded % Phosphatase Activity (compared to DMSO) PRL-3 result.
Q: Give the value of % Phosphatase Activity (compared to DMSO) PRL-3 reported for the following: CCN(C)C(=O)Oc1cccc([C@H](C)N(C)C)c1 [Rivastigmine]
A: 92

Q: Give the value of % Phosphatase Activity (compared to DMSO) PRL-3 reported for the following: CN1CCN(c2c(F)cc3c(=O)c(C(=O)O)cn4c3c2OCN4C)CC1
A: 180

I have 2 compounds here; please give me % Phosphatase Activity (compared to DMSO) PRL-3 for each one.
1. Nc1nc(=O)c2nc(CNc3ccc(C(=O)N[C@@H](CCC(=O)O)C(=O)O)cc3)cnc2[nH]1
2. CC(O)C(=O)O.CC(O)C(=O)O.CN1CCN(c2ccc3nc(-c4c(N)c5c(F)cccc5[nH]c4=O)[nH]c3c2)CC1

A:
92
91
